Target: Cholinesterase (Homo sapiens)
QUANTITY_MEASURED: IC50 (µM)
Please state the figure in µM; there is no need to write the unit.

Measured IC50 (Cholinesterase (Homo sapiens)), entry O=C1CN(/N=C/c2ccc(-c3ccccc3[N+](=O)[O-])o2)C(=O)N1CCC1CCN(Cc2ccccc2)CC1 : 4.47

----------
Reported values: pIC50 for Acetylcholinesterase (Homo sapiens, UniProt P22303), one per item.
Worth noting: pIC50 values are minus log10 of concentrations stated in mol/L.

Known pIC50 results, listed for orientation:
- SMILES_REPRESENTATION: "O=C1CN(/N=C/c2ccc(-c3ccc([N+](=O)[O-])cc3)o2)C(=O)N1CCN1CCN(Cc2ccccc2)CC1"
  pIC50: 6.70
- SMILES_REPRESENTATION: "O=C1CN(/N=C/c2ccc(-c3ccc([N+](=O)[O-])cc3)o2)C(=O)N1CCC1CCN(Cc2ccccc2)CC1"
  pIC50: 7.33
- SMILES_REPRESENTATION: "O=C1CN(/N=C/c2ccc(-c3cccc([N+](=O)[O-])c3)o2)C(=O)N1CCC1CCN(Cc2ccccc2)CC1"
  pIC50: 6.54
- SMILES_REPRESENTATION: "O=C1CN(/N=C/c2ccc(-c3ccccc3[N+](=O)[O-])o2)C(=O)N1CCC1CCN(Cc2ccccc2)CC1"
  pIC50: 7.47
- SMILES_REPRESENTATION: "COc1cccc(-c2ccc(/C=N/N3CC(=O)N(CCC4CCN(Cc5ccccc5)CC4)C3=O)o2)c1"
  pIC50: 7.33
- SMILES_REPRESENTATION: "COc1ccc(-c2ccc(/C=N/N3CC(=O)N(CCC4CCN(Cc5ccccc5)CC4)C3=O)o2)cc1"
  pIC50: 6.97

Switching to the query record.
Measured pIC50 (Acetylcholinesterase (Homo sapiens, UniProt P22303)), entry COc1ccccc1-c1ccc(/C=N/N2CC(=O)N(CCC3CCN(Cc4ccccc4)CC3)C2=O)o1 : 7.04

----------
Biological target: BuChE (butyrylcholinesterase) (Homo sapiens, UniProt P06276)
Sequence (P06276 whole entry): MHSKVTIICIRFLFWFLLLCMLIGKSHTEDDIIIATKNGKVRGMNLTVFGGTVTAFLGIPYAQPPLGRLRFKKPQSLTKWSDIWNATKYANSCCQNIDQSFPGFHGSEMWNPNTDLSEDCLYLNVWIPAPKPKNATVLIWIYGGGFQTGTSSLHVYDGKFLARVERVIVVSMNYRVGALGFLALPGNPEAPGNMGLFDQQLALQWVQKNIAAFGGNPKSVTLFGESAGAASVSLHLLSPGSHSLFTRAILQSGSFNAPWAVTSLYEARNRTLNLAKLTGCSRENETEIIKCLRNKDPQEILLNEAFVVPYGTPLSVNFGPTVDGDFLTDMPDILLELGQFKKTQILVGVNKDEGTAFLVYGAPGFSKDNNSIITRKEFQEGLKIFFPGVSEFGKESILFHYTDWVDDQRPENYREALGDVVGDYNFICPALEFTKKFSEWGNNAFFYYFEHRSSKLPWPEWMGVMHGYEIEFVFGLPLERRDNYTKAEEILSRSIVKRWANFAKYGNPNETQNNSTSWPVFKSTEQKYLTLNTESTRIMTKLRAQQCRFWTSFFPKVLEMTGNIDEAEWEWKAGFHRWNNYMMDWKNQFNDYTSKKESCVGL
Experiment: Inhibition of BuChE (unknown origin) at 20 nM relative to control
Where a name gives a salt, the structure may show the parent alone.
QUANTITY_MEASURED: inhibition at 0.02 µM (%)
Please state the figure in %; there is no need to write the unit.

The recorded inhibition at 0.02 µM for Nc1c2c(nc3ccccc13)CCCC2 [TACRINE HYDROCHLORIDE] is 64.5

----------
Target: UniProtKB P22303
Experiment: Inhibition of AChE (unknown origin) at 1 uM using acetylthiocholine iodide as substrate by Ellman's method relative to control
The source made the active and inactive calls. The calls are words filed in the database; no cut-off is given here.

- SMILES_REPRESENTATION: "O=C1CN(/N=C/c2ccc(-c3ccc([N+](=O)[O-])cc3)o2)C(=O)N1"
  inhibition: "inactive"
- SMILES_REPRESENTATION: "O=C1CN(/N=C/c2ccc(-c3ccc([N+](=O)[O-])cc3)o2)C(=O)N1CCC1CCN(Cc2ccccc2)CC1"
  inhibition: "91.3%"
- SMILES_REPRESENTATION: "O=C1CN(/N=C/c2ccc(-c3ccc([N+](=O)[O-])cc3)o2)C(=O)N1CCN1CCN(Cc2ccccc2)CC1"
  inhibition: "67.9%"
- SMILES_REPRESENTATION: "O=C1CN(/N=C/c2ccc(-c3ccc([N+](=O)[O-])cc3)o2)C(=O)N1CC1CCN(Cc2ccccc2)CC1"
  inhibition: "inactive"

Data origin, for the record: ChEMBL document CHEMBL4610045
